Target: recombinant human BRD4 BD1 (Homo sapiens)
Assay: Competitive fluorescence-polarization binding assay, BRD4 BD1
pIC50: −log10 of the molar value.
Documented pIC50 across a set of compounds
RESULT_TYPE: pIC50

[[record]]
compound = "COc1cc2c(cc1-c1c(C)noc1C)[nH]c1ncnc(-c3c[nH]c4cc(F)ccc34)c12 [Compound 20]"
numeric_readout = 8.66

[[record]]
compound = "COc1cc2c(cc1-c1c(C)noc1C)[nH]c1nc(C)nc(-c3c(C)ccc4ncccc34)c12 [Compound 33]"
numeric_readout = 7.03

[[record]]
compound = "COc1cc2c(cc1-c1c(C)noc1C)[nH]c1ncnc(-c3c(C)[nH]c4cc(F)ccc34)c12 [Compound 22]"
numeric_readout = 8.64


---

Test system: MV4;11 acute leukemia cell line
Assay: Cell growth inhibition
Assay type: cell-based
Conditions: Homo sapiens, MV4-11, 96 h, read-out: IC50 MV4;11 cell growth inhibition
Note to self: use rule met only for IC50 readings below 0.08 µM; a reading exactly at 0.08 µM still gets rule not met.

[[record]]
molecule = "COc1cc2c(cc1-c1c(C)noc1C)[nH]c1nc(C)nc(-c3c(C)ccc4ncccc34)c12"
tested_target = "MV4;11 acute leukemia cell line"
category = "rule not met"

[[record]]
molecule = "COc1cc2c(cc1-c1c(C)noc1C)[nH]c1ccnc(-c3c(C4CC4)n[nH]c3C)c12 [Compound 6, RX-37, reference compound]"
tested_target = "MV4;11 acute leukemia cell line"
category = "rule met"

[[record]]
molecule = "COc1cc2c(cc1-c1c(C)noc1C)[nH]c1ncnc(-c3c[nH]c4cc(F)ccc34)c12"
tested_target = "MV4;11 acute leukemia cell line"
category = "rule met"

[[record]]
molecule = "COc1cc2c(cc1-c1c(C)noc1C)ncc1[nH]c(=O)n([C@H](C)c3ccccn3)c12 [Compound 5, I-BET151, reference compound]"
tested_target = "MV4;11 acute leukemia cell line"
category = "rule not met"

[[record]]
molecule = "COc1cc2c(cc1-c1c(C)noc1C)[nH]c1ncnc(-c3c(C)[nH]c4cc(F)ccc34)c12"
tested_target = "MV4;11 acute leukemia cell line"
category = "rule met"


---

Item-by-item account of pIC50
Tested on: MOLM-13 acute leukemia cell line
Experiment: Cell growth inhibition
Assay type: cell-based
Conditions: Homo sapiens, MOLM-13, 96 h, read-out: IC50 MOLM-13 cell growth inhibition
pIC50: −log10 of the molar value.
RESULT_TYPE: pIC50

[[record]]
chemical_structure = "COc1cc2c(cc1-c1c(C)noc1C)[nH]c1ncnc(-c3c[nH]c4cc(F)ccc34)c12"
result_type = "pIC50"
numeric_readout = 6.43

[[record]]
chemical_structure = "COc1cc2c(cc1-c1c(C)noc1C)[nH]c1nc(C)nc(-c3c(C)ccc4ncccc34)c12"
result_type = "pIC50"
numeric_readout = 6.66

[[record]]
chemical_structure = "COc1cc2c(cc1-c1c(C)noc1C)[nH]c1ncnc(-c3c(C)[nH]c4cc(F)ccc34)c12"
result_type = "pIC50"
numeric_readout = 7.29


---

Biological target: all other 371 kinases
Assay: DiscoverX KINOMEscan kinase screening, remaining panel
Details: read-out: IC50 against all other 371 kinases
RESULT_TYPE: IC50

[[record]]
chemical_structure = "COc1cc2c(cc1-c1c(C)noc1C)[nH]c1nc(C)nc(-c3ccnc4ccccc34)c12"
result_type = "IC50"
result = "> 50 µM"


---

Biological target: recombinant human BRD4 BD2 (Homo sapiens)
Assay: Competitive fluorescence-polarization binding assay, BRD4 BD2
Details: BRD4 BD2 Ki, FP competitive binding; Tables 1, 2, 7 and text
pKi: −log10 of the molar value.
RESULT_TYPE: pKi

[[record]]
chemical_structure = "COc1cc2c(cc1-c1c(C)noc1C)[nH]c1ncnc(-c3c(C)[nH]c4cc(F)ccc34)c12"
relation = ">"
numeric_readout = 9.00

[[record]]
chemical_structure = "COc1cc2c(cc1-c1c(C)noc1C)[nH]c1nc(C)nc(-c3c(C)ccc4ncccc34)c12"
relation = "="
numeric_readout = 7.98

[[record]]
chemical_structure = "COc1cc2c(cc1-c1c(C)noc1C)[nH]c1ncnc(-c3c[nH]c4cc(F)ccc34)c12"
relation = "="
numeric_readout = 9.00

